# System: Musca domestica
# assay_summary: Insecticidal activity against 3-day old Musca domestica (house fly) administered topically measured after 24 hr
# Type: functional
# key: entry, value: LD50

Examples from the recorded data:
// recorded LD50 for COc1cc2c(cc1[C@H]1OC[C@]3(O)[C@@H](Oc4c(OC)cccc4OC)OC[C@H]13)OC(CO)CO2 (mixture of isomers) : >10 µg

Recorded result, `COc1cc2c(cc1[C@H]1OC[C@]3(O)[C@@H](Oc4c(OC)cccc4OC)OC[C@H]13)OCCO2` , LD50: >10 µg

Others:
Input COc1cc2c(cc1[C@H]1OC[C@]3(O)[C@@H](Oc4c(OC)cccc4OC)OC[C@H]13)OC(COCc1ccccc1)CO2 (mixture of isomers) . Output LD50: >10 µg
